Target: T1, GAL4 activation domain fusion (ACT) to HAB1 (UniProt Q9CAJ0 23-511, limits assumed)
T1 construct: pACT-HAB1 fusion in yeast reporter strains; also called pACT-HAB1
T1 sequence (looked up): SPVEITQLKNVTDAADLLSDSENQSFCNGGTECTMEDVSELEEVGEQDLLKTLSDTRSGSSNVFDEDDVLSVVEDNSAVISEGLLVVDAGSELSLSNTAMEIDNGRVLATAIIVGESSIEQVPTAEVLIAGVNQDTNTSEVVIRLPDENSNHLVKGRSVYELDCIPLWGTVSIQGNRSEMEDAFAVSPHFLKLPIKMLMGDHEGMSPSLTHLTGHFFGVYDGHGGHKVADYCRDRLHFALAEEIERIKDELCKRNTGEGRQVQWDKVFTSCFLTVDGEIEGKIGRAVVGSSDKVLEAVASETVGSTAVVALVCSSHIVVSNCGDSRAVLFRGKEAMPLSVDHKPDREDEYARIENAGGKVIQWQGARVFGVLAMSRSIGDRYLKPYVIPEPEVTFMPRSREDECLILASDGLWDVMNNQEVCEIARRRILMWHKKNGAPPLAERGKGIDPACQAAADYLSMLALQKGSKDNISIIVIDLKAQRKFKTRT
Assay: yeast two-hybrid, X-gal; lowest dichlobenil concentration giving signal
observable: Threshold (µM)
Provide only the numeric value, understood in µM.

binder	scaleUnit	numericValue
PYR1^K59R,V164M (receptor, not shown: small tags and cut ends, pBD-PYR1 fusion in yeast) MPSELTPEERSELKNSIAEFHTYQLDPGSCSSLHAQRIHAPPELVWSIVRRFDKPQTYRHFIKSCSVEQNFEMRVGCTRDVIVISGLPANTSTERLDILDDERRVTGFSIIGGEHRLTNYKSVTTVHRFEKENRIWTVVLESYVVDMPEGNSEDDTRMFADTVMKLNLQKLATVAEAMARNSGDGSGSQVT	µM	100

Let us move to another entry and its Threshold.
Prompt: Consider the binder PYR1^K59R,V164Y (receptor, not shown: small tags and cut ends, pBD-PYR1 fusion in yeast) MPSELTPEERSELKNSIAEFHTYQLDPGSCSSLHAQRIHAPPELVWSIVRRFDKPQTYRHFIKSCSVEQNFEMRVGCTRDVIVISGLPANTSTERLDILDDERRVTGFSIIGGEHRLTNYKSVTTVHRFEKENRIWTVVLESYVVDMPEGNSEDDTRMFADTVYKLNLQKLATVAEAMARNSGDGSGSQVT and give its measured Threshold.
Completion: 100
